Dear all, this message contains pIC50 results, target or system Hepatocyte growth factor receptor (Homo sapiens, UniProt P08581).
Would you please state pIC50, meaning minus log10 of the concentration in mol/L, as a bare number?

query: Consider the compound shown here: CN1C(=O)/C(=N\NC(=O)c2cccc(C(=O)N/N=C3/C(=O)N(C)c4ccccc43)c2)c2ccccc21 What is its recorded pIC50?
result: 4.99

query: Need pIC50, item COc1ccc(C(=O)N/N=C2\C(=O)N(CN3CCOCC3)c3ccc(Br)cc32)cc1
result: 5.66

query: Query: pIC50; subject: Cc1cccc(C(=O)Nc2ccc(C(=O)N/N=C3\C(=O)Nc4ccccc43)cc2)c1
result: 5.89

query: Need pIC50 of O=C1Nc2ccccc2/C1=N/NC(=O)c1cc2ccccc2cc1O , thanks.
result: 5.37

query: Endpoint output: pIC50 of O=C(N/N=C1\C(=O)N(CN2CCOCC2)c2ccc(Br)cc21)c1ccccc1 . Value?
result: 5.46
